Molecular target: Mitogen-activated protein kinase 11 (Homo sapiens)
Assay: Inhibition of p38beta assessed as gamma-[33P]ATP incorporation by scintillation counting
MEASURED_PARAMETER: IC50 (µM)

- MOLECULE: "Clc1ccc(-c2n[nH]c(C3CCN(C4CCOC4)CC3)c2-c2ccncn2)cc1 (stereo unspecified)"
  DATA_VALUE: 7.41

A. COCC(=O)N1CCC(c2[nH]nc(-c3ccc(Cl)cc3)c2-c2ccncc2)CC1
B. CC(C)(O)CN1CCC(c2[nH]nc(-c3ccc(Cl)cc3)c2-c2ccncn2)CC1
C. Cc1cccc(-c2n[nH]c(C3CCN(C)CC3)c2-c2ccncc2)c1
D. Fc1ccc(-c2n[nH]c(C3CCCNC3)c2-c2ccncc2)cc1 (stereo unspecified)
E. CN1CCC(c2[nH]nc(-c3cccc(Cl)c3)c2-c2ccncc2)CC1
Put the items in order so that reported IC50 rises from first to last. Please express your ranking as an ordered list of the labels.
D, E, C, A, B
(D: 0.404 µM, E: 1.05 µM, C: 2.35 µM, A: 3.45 µM, B: 9.78 µM)

----------
Assay: Intrinsic clearance in human liver microsomes
Format: ADME, Microsome
MEASURED_PARAMETER: CLint scaled (mL/min/kg)

- MOLECULE: "Clc1ccc(-c2n[nH]c(C3CCN(C4CCOC4)CC3)c2-c2ccncn2)cc1 (stereo unspecified)"
  READOUT_UNITS: "mL/min/kg"
  DATA_VALUE: 16.3
- MOLECULE: "CN1CCC(c2[nH]nc(-c3ccc(Cl)cc3)c2-c2ccncn2)CC1"
  READOUT_UNITS: "mL/min/kg"
  DATA_VALUE: 31.5
- MOLECULE: "OCCN1CCC(c2[nH]nc(-c3ccc(Cl)cc3)c2-c2ccncn2)CC1"
  READOUT_UNITS: "mL/min/kg"
  DATA_VALUE: 21.4
- MOLECULE: "O=C(CO)N1CCC(c2[nH]nc(-c3ccc(Cl)cc3)c2-c2ccncc2)CC1"
  READOUT_UNITS: "mL/min/kg"
  DATA_VALUE: 15.8
- MOLECULE: "CC(=O)N1CCC(c2[nH]nc(-c3ccc(Cl)cc3)c2-c2ccncc2)CC1"
  READOUT_UNITS: "mL/min/kg"
  DATA_VALUE: 22.5

----------
System: Blood
Test: Antiinflammatory activity against LPS-induced TNFalpha production in human whole blood treated 1 hr before LPS challenge measured after 4 hrs by ELISA
Type: functional, tissue-based
pIC50: −log10 of the molar value.
MEASURED_PARAMETER: pIC50

- MOLECULE: "OCCN1CCC(c2[nH]nc(-c3ccc(Cl)cc3)c2-c2ccncn2)CC1"
  pIC50: 6.31
- MOLECULE: "CN1CCC(c2[nH]nc(-c3ccc(Cl)cc3)c2-c2ccncn2)CC1"
  pIC50: 6.10
- MOLECULE: "Clc1ccc(-c2n[nH]c(C3CCN(C4CCOC4)CC3)c2-c2ccncn2)cc1 (stereo not given)"
  pIC50: 6.28

----------
Property: inhibition in vivo at 5 mg/kg; scope: individual molecules
Tested on: Rattus norvegicus
Experiment: Antiinflammatory activity in Lewis rat plasma assessed as reduction in LPS-stimulated TNFalpha accumulation at 5 mg/kg, ig administered 4 hrs before LPS challenge measured after […] by ELISA
Type: functional
Details: po, route intragastric
Field format: number, assumed %, no unit text.

- MOLECULE: "O[C@H]1CCC[C@@H]1N1CCC(c2[nH]nc(-c3ccc(Cl)cc3)c2-c2ccncn2)CC1"
  inhibition in vivo at 5 mg/kg, %: 70
- MOLECULE: "Fc1ccc(-c2n[nH]c(C3CCNCC3)c2-c2ccncc2)cc1"
  inhibition in vivo at 5 mg/kg, %: 2
- MOLECULE: "CS(=O)(=O)N1CCC(c2[nH]nc(-c3ccc(Cl)cc3)c2-c2ccncn2)CC1"
  inhibition in vivo at 5 mg/kg, %: 89

Entry under review: O=C(CO)N1CCC(c2[nH]nc(-c3ccc(Cl)cc3)c2-c2ccncc2)CC1 . Reported inhibition in vivo at 5 mg/kg?
85

Next molecule: OCCN1CCC(c2[nH]nc(-c3ccc(Cl)cc3)c2-c2ccncn2)CC1
88

----------
Biological target: Mitogen-activated protein kinase 14 (Homo sapiens)
Sequence (Q16539 whole entry): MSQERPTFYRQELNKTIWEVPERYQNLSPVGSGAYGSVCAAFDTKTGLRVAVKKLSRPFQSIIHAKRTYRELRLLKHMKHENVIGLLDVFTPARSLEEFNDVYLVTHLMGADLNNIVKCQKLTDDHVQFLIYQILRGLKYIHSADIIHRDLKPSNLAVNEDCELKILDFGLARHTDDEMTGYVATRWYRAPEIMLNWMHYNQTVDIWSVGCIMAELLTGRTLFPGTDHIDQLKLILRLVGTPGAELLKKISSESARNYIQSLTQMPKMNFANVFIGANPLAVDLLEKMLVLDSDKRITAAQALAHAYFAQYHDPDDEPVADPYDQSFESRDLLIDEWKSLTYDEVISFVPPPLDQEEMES
Test: Inhibition of p38alpha assessed as gamma-[33P]ATP incorporation by scintillation counting
MEASURED_PARAMETER: IC50 (nM)

Some entries whose results are on file:
- ENTRY_SMILES: "CN1CCC(c2[nH]nc(-c3ccc(Cl)cc3)c2-c2ccncc2)CC1"
  IC50, nM: 31.6
- ENTRY_SMILES: "CN1CCC(c2[nH]nc(-c3ccc(F)cc3)c2-c2ccncc2)CC1"
  IC50, nM: 54.7

I. Clc1ccc(-c2n[nH]c(C3CCN(Cc4ccncc4)CC3)c2-c2ccncn2)cc1
II. CC(=O)N1CCC(c2[nH]nc(-c3ccc(Cl)cc3)c2-c2ccncn2)CC1
III. COCCN1CCC(c2[nH]nc(-c3ccc(Cl)cc3)c2-c2ccncc2)CC1
Please rank these compounds by IC50 in descending order. Please express your ranking as an ordered list of the labels.
II, III, I
(II: 152 nM, III: 70 nM, I: 47 nM)

----------
Target: Mitogen-activated protein kinase 11 (Homo sapiens, UniProt Q15759)
Sequence (Q15759 whole entry): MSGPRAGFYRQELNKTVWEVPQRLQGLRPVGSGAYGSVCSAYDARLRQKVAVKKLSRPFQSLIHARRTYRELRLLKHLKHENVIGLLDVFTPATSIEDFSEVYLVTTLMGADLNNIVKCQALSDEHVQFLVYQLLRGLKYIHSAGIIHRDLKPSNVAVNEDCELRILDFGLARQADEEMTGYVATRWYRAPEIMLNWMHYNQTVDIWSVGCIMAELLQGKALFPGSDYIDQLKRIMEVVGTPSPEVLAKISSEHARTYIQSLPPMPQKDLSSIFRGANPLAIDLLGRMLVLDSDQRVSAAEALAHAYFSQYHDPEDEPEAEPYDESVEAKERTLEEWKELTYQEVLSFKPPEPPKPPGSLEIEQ
Assay: Inhibition of p38beta assessed as gamma-[33P]ATP incorporation by scintillation counting
pIC50: −log10 of the molar value.
MEASURED_PARAMETER: pIC50

Some entries whose results are on file:
- COMPOUND: "CC(C)(CO)N1CCC(c2[nH]nc(-c3ccc(Cl)cc3)c2-c2ccncn2)CC1"
  TARGET: "Mitogen-activated protein kinase 11 (Homo sapiens, UniProt Q15759)"
  pIC50: 5.56
- COMPOUND: "CN1CCC(c2[nH]nc(-c3ccc(Cl)cc3)c2-c2ccncc2)CC1"
  TARGET: "Mitogen-activated protein kinase 11 (Homo sapiens, UniProt Q15759)"
  pIC50: 5.57
- COMPOUND: "Clc1ccc(-c2n[nH]c(C3CCN(Cc4ccncc4)CC3)c2-c2ccncn2)cc1"
  TARGET: "Mitogen-activated protein kinase 11 (Homo sapiens, UniProt Q15759)"
  pIC50: 5.48

I. CN(C)C(=O)N1CCC(c2[nH]nc(-c3ccc(Cl)cc3)c2-c2ccncn2)CC1
II. Clc1ccc(-c2n[nH]c(C3CCN(C4CCOCC4)CC3)c2-c2ccncn2)cc1
Thinking about recorded pIC50 values, which is higher, I or II ? When you have decided, please share the label of that item.
I

----------
Property: inhibition in vivo at 5 mg/kg; scope: individual molecules
Test system: Rattus norvegicus
Experiment: Antiinflammatory activity in Lewis rat plasma assessed as reduction in LPS-stimulated TNFalpha accumulation at 5 mg/kg, ig administered 4 hrs before LPS challenge measured after […] by ELISA
Assay type: functional
Settings: po, route intragastric
Field format: number, assumed %, no unit text.

- MOLECULE: "CC(=O)N1CCC(c2[nH]nc(-c3ccc(F)cc3)c2-c2ccncc2)CC1"
  TARGET: "Rattus norvegicus"
  DATA_VALUE: 41
- MOLECULE: "O=C(CO)N1CCC(c2n[nH]c(-c3ccc(Cl)cc3)c2-c2ccncn2)CC1 [SD-0006]"
  TARGET: "Rattus norvegicus"
  DATA_VALUE: 87
- MOLECULE: "CN1CCC(c2[nH]nc(-c3cccc(C(F)(F)F)c3)c2-c2ccncc2)CC1"
  TARGET: "Rattus norvegicus"
  DATA_VALUE: 6
- MOLECULE: "Clc1ccc(-c2n[nH]c(C3CCN(C4CCOC4)CC3)c2-c2ccncn2)cc1 (centres undefined)"
  TARGET: "Rattus norvegicus"
  DATA_VALUE: 70
- MOLECULE: "CN1CCC(c2[nH]nc(-c3ccc(C(F)(F)F)cc3)c2-c2ccncc2)CC1"
  TARGET: "Rattus norvegicus"
  DATA_VALUE: 22
- MOLECULE: "CN1CCC(c2[nH]nc(-c3ccc(Cl)cc3)c2-c2ccncn2)CC1"
  TARGET: "Rattus norvegicus"
  DATA_VALUE: 63
- MOLECULE: "CN(C)CC(=O)N1CCC(c2[nH]nc(-c3ccc(Cl)cc3)c2-c2ccncc2)CC1"
  TARGET: "Rattus norvegicus"
  DATA_VALUE: 85
- MOLECULE: "Clc1ccc(-c2n[nH]c(C3CCN(C4CCOCC4)CC3)c2-c2ccncn2)cc1"
  TARGET: "Rattus norvegicus"
  DATA_VALUE: 46

// next entry
Entry under review: NS(=O)(=O)N1CCC(c2[nH]nc(-c3ccc(Cl)cc3)c2-c2ccncc2)CC1 . Reported inhibition in vivo at 5 mg/kg?
68

----------
Biological target: Mitogen-activated protein kinase 11 (Homo sapiens, UniProt Q15759)
Assay: Inhibition of p38beta assessed as gamma-[33P]ATP incorporation by scintillation counting
pIC50: −log10 of the molar value.
MEASURED_PARAMETER: pIC50

- COMPOUND: "CS(=O)(=O)N1CCC(c2[nH]nc(-c3ccc(Cl)cc3)c2-c2ccncn2)CC1"
  TARGET: "Mitogen-activated protein kinase 11 (Homo sapiens, UniProt Q15759)"
  pIC50: 5.39
- COMPOUND: "CN1CCCC(c2[nH]nc(-c3ccc(F)cc3)c2-c2ccncc2)C1 (stereo not given)"
  TARGET: "Mitogen-activated protein kinase 11 (Homo sapiens, UniProt Q15759)"
  pIC50: 5.60
- COMPOUND: "CC(=O)N1CCC(c2[nH]nc(-c3ccc(Cl)cc3)c2-c2ccncc2)CC1"
  TARGET: "Mitogen-activated protein kinase 11 (Homo sapiens, UniProt Q15759)"
  pIC50: 5.50
- COMPOUND: "CN1CCC(c2[nH]nc(-c3ccc(C(F)(F)F)cc3)c2-c2ccncc2)CC1"
  TARGET: "Mitogen-activated protein kinase 11 (Homo sapiens, UniProt Q15759)"
  pIC50: 5.42
- COMPOUND: "CC(=O)N1CCC(c2[nH]nc(-c3ccc(F)cc3)c2-c2ccncc2)CC1"
  TARGET: "Mitogen-activated protein kinase 11 (Homo sapiens, UniProt Q15759)"
  pIC50: 5.56

Cited source for all entries: ChEMBL document CHEMBL1156967
